System: CD2F1 mice, L1210 leukemia ip, survival T/C
assay comment: NCI In Vivo Anticancer Drug Screen. Data for tumor model L1210 Leukemia (intraperitoneal) in CD2F1 (CDF1) mice
measurement context: endpoint: mean survival time; dose: 20.0 mg/kg/injection; schedule: Q01DX001 (ip); vehicle: saline; higher = longer survival
Inconclusive results and toxic doses are left out.

{"compound": "CCCCCCCCCC(=O)N1CC[N+](C)(C)CC1", "T/C": "104 % of control"}
{"compound": "O=C(CCl)c1cnc2ccccc2n1", "T/C": "95 % of control"}
{"compound": "CN(N=O)C(=O)NC1C(CO)OC(n2ccc(=O)[nH]c2=O)C1O (centres undefined)", "T/C": "107 % of control"}
{"compound": "O=CO.[Co]", "T/C": "106 % of control"}

---

Test system: CD2F1 mice, L1210 leukemia ip, survival T/C
assay comment: NCI In Vivo Anticancer Drug Screen. Data for tumor model L1210 Leukemia (intraperitoneal) in CD2F1 (CDF1) mice
measurement context: endpoint: mean survival time; dose: 400.0 mg/kg/injection; schedule: Q04DX003 (ip); vehicle: other; higher = longer survival
Inconclusive results and toxic doses are left out.

{"compound": "Cc1ccc(S(=O)(=O)N/N=C/c2ccc(O)c(O)c2)cc1", "T/C": "101 % of control"}
{"compound": "Cc1cc(C)cc(NCCC#N)c1", "T/C": "98 % of control"}
{"compound": "CC(C)C(C(=O)c1ccccc1)C(c1ccccc1)c1ccccc1 (stereo unspecified)", "T/C": "100 % of control"}
{"compound": "C[Si](C)(C)Oc1ccc(O[Si](C)(C)C)cc1", "T/C": "106 % of control"}
{"compound": "BrCC12CCC1(CBr)COC2 (stereo unspecified)", "T/C": "96 % of control"}
{"compound": "Cc1cccc(Cl)c1NC(=O)C(C)C", "T/C": "87 % of control"}

---

Collected T/C values appear next to each entry.
System: CD2F1 mice, L1210 leukemia ip, survival T/C
assay comment: NCI In Vivo Anticancer Drug Screen. Data for tumor model L1210 Leukemia (intraperitoneal) in CD2F1 (CDF1) mice
measurement context: endpoint: mean survival time; dose: 25.0 mg/kg/injection; schedule: Q01DX009 (ip); vehicle: saline; higher = longer survival
Method: The antitumor activity of compounds was measured in mice bearing transplantable tumors. Survival or tumor size were measured and the results are expressed as the measurement made in the treated group (T) divided by the measurement made in the vehicle treated control group (C). The tumor model used in this assay is L1210 Leukemia (intraperitoneal) in CD2F1 (CDF1) mice
Toxic doses and inconclusive results are not listed.

{"molecule": "C(CCSC1=NCCN1)CCSC1=NCCN1", "test target": "CD2F1 mice, L1210 leukemia ip, survival T/C", "T/C": "97 % of control"}
{"molecule": "OC1CCC2=C(C1)C1CCC2C1 (stereo unspecified)", "test target": "CD2F1 mice, L1210 leukemia ip, survival T/C", "T/C": "103 % of control"}
{"molecule": "CCCCCCCCCCCCCCCC[N+]1(C)CCSCC1", "test target": "CD2F1 mice, L1210 leukemia ip, survival T/C", "T/C": "87 % of control"}
{"molecule": "CCCN1CCN(c2ccccc2)CC1", "test target": "CD2F1 mice, L1210 leukemia ip, survival T/C", "T/C": "103 % of control"}
{"molecule": "Oc1ccccc1C=NCC[N-]CCN=Cc1ccccc1O.[Co]", "test target": "CD2F1 mice, L1210 leukemia ip, survival T/C", "T/C": "103 % of control"}
{"molecule": "c1ccc(C[n+]2ccccc2)cc1", "test target": "CD2F1 mice, L1210 leukemia ip, survival T/C", "T/C": "100 % of control"}
{"molecule": "CC(Br)C1(c2cccc([N+](=O)[O-])c2)OCCO1 (stereo unspecified)", "test target": "CD2F1 mice, L1210 leukemia ip, survival T/C", "T/C": "112 % of control"}
{"molecule": "CCN(CC)CCOc1ccc2c(c1)C(=O)c1cc(OCCN(CC)CC)ccc1-2", "test target": "CD2F1 mice, L1210 leukemia ip, survival T/C", "T/C": "98 % of control"}
{"molecule": "CCC[P+](c1ccccc1)(c1ccccc1)c1ccccc1", "test target": "CD2F1 mice, L1210 leukemia ip, survival T/C", "T/C": "117 % of control"}
{"molecule": "COC(=O)N1C=Cc2ccccc2C1C#N (stereo unspecified)", "test target": "CD2F1 mice, L1210 leukemia ip, survival T/C", "T/C": "89 % of control"}
{"molecule": "CCN(CC)CCNc1ccc(C)c2sc3ccccc3c(=O)c12", "test target": "CD2F1 mice, L1210 leukemia ip, survival T/C", "T/C": "118 % of control"}
{"molecule": "CC(Cl)(C(Cl)Cl)C(F)(F)F (stereo unspecified)", "test target": "CD2F1 mice, L1210 leukemia ip, survival T/C", "T/C": "98 % of control"}
{"molecule": "CCCN(CCC)C(=O)C(=O)OCC", "test target": "CD2F1 mice, L1210 leukemia ip, survival T/C", "T/C": "93 % of control"}
{"molecule": "O=C(O)C1CSCN1 (stereo unspecified)", "test target": "CD2F1 mice, L1210 leukemia ip, survival T/C", "T/C": "93 % of control"}
{"molecule": "COc1ccc2c(c1)N(CC(C)C[N+](C)(C)CCCCCCCCCC[N+](C)(C)CC(C)CN1c3ccccc3Sc3ccc(OC)cc31)c1ccccc1S2 (stereo unspecified)", "test target": "CD2F1 mice, L1210 leukemia ip, survival T/C", "T/C": "106 % of control"}
{"molecule": "NNC(=O)CCC(=O)NN", "test target": "CD2F1 mice, L1210 leukemia ip, survival T/C", "T/C": "97 % of control"}

---

Test system: CD2F1 mice, L1210 leukemia ip, survival T/C
assay comment: NCI In Vivo Anticancer Drug Screen. Data for tumor model L1210 Leukemia (intraperitoneal) in CD2F1 (CDF1) mice
measurement context: endpoint: mean survival time; dose: 200.0 mg/kg/injection; schedule: Q01DX009 (ip); vehicle: Klucel (hydroxypropylcellulose) (HPC); higher = longer survival
Toxic doses and inconclusive results are not listed.
In this section we review reported T/C values for a set of compounds.
metric name: T/C

{"molecular string": "CNc1nc(NC)nc(NC)n1", "observed value": "103 % of control"}
{"molecular string": "CCCCOC(=O)C(N)=O", "observed value": "100 % of control"}
{"molecular string": "CCCCCCCCCCCCCCCCOc1ccccc1/C=N/O", "observed value": "89 % of control"}
{"molecular string": "CNC(=O)c1n[nH]c(C)c1[N+](=O)[O-]", "observed value": "104 % of control"}
{"molecular string": "CCOC(=O)c1ccc(NNS(=O)(=O)c2cccc(N)c2)cc1", "observed value": "93 % of control"}
{"molecular string": "O=C1Nc2ccccc2/C1=C\\c1ccccc1O", "observed value": "96 % of control"}
{"molecular string": "Cc1ccc2c(c1)-c1[nH]c3ccccc3c1CS2", "observed value": "107 % of control"}
{"molecular string": "CN(C)c1ccc(/C=C/c2ccc3ccccc3n2)c(F)c1", "observed value": "98 % of control"}
{"molecular string": "Cc1ccc([N+](=O)[O-])cc1NC(=O)Nc1cc([N+](=O)[O-])ccc1F", "observed value": "101 % of control"}

---

System: CD2F1 mice, L1210 leukemia ip, survival T/C
assay comment: NCI In Vivo Anticancer Drug Screen. Data for tumor model L1210 Leukemia (intraperitoneal) in CD2F1 (CDF1) mice
measurement context: endpoint: mean survival time; dose: 200.0 mg/kg/injection; schedule: Q01DX001 (ip); vehicle: saline
Inconclusive results and toxic doses are left out. How the source made its calls: active means survival T/C of 150% or more; inactive means T/C below 125% in these data.
Outcome codes: active, inactive

{"molecule": "OCC1OC(n2c(SCc3ccccc3)nc3ccccc32)C(O)C1O (configuration not stated)", "cat": "inactive"}
{"molecule": "O=P(Oc1ccc(OP(=O)(N2CC2)N2CC2)cc1)(N1CC1)N1CC1", "cat": "active"}
{"molecule": "O=c1ccc2ccc(O)cc2o1", "cat": "inactive"}
{"molecule": "CC1/C(=N\\Nc2ccc([N+](=O)[O-])cc2[N+](=O)[O-])CCC2C1(C)CCC1C2(C)CCC2(C)C3CC(C)(C)CCC3(C)CCC12C (configuration not stated)", "cat": "inactive"}
{"molecule": "CCS(=O)(=O)OCCCNCCCOS(=O)(=O)CC", "cat": "active"}
{"molecule": "CN(N)c1nc(N)c(C#N)c(C#N)c1C#N", "cat": "inactive"}
{"molecule": "CC1CCCC2(C)CCC(C(C)(C)O)CC12 (configuration not stated)", "cat": "inactive"}
{"molecule": "CC1(C#N)CCC(=O)N1 (configuration not stated)", "cat": "inactive"}
{"molecule": "CC(C)NCCO", "cat": "inactive"}
{"molecule": "Cn1nc(C#N)c2ccccc21", "cat": "inactive"}
{"molecule": "CC1(C)SCNC1C(=O)O (configuration not stated)", "cat": "inactive"}
{"molecule": "Cc1ccc2nc(-c3ccc(NC(=O)c4ccc(C(=O)Nc5ccc(-c6nc7ccc(C)cc7s6)cc5)cc4)cc3)sc2c1", "cat": "inactive"}
{"molecule": "NC(N)=NCCCC(NC(c1ccccc1)(c1ccccc1)c1ccccc1)C(=O)O (configuration not stated)", "cat": "inactive"}
{"molecule": "CCC1Cc2c([nH]c(=O)n(-c3ccccc3)c2=O)O1 (configuration not stated)", "cat": "inactive"}
{"molecule": "CCc1ccccc1OCC1CO1 (configuration not stated)", "cat": "inactive"}
{"molecule": "CCOC(=O)C(Cc1ccc(OC)cc1)P(=O)(OCC)OCC (configuration not stated)", "cat": "inactive"}
{"molecule": "CCON(C(C)=O)c1cccc([N+](=O)[O-])c1", "cat": "inactive"}
{"molecule": "Nc1nc(Cl)c2nc(Cl)n(C3OC(CO)C(O)C3O)c2n1 (configuration not stated)", "cat": "inactive"}
{"molecule": "COc1ccccc1NC(=O)CSC(N)=O", "cat": "inactive"}
{"molecule": "COc1ccc2ccccc2c1NC(C)=O", "cat": "inactive"}
{"molecule": "O=C(O)C[Se]CC(=O)O", "cat": "inactive"}
{"molecule": "CCC(C)(CC(=O)OC)C(=O)OC (configuration not stated)", "cat": "inactive"}
{"molecule": "O=[N+]([O-])CS(=O)(=O)N1CCOCC1", "cat": "inactive"}
{"molecule": "NC(N)=NCCN=C(N)N", "cat": "inactive"}
{"molecule": "CC(C)NC(=O)NC(C)C", "cat": "inactive"}
{"molecule": "CCN1CC2CCC(C(=O)O)(C2)C1=O (configuration not stated)", "cat": "inactive"}
{"molecule": "Cc1ccc(S(=O)(=O)SCC(=O)c2ccc([N+](=O)[O-])cc2)cc1", "cat": "inactive"}
